- Assay name: Dog study of lumefantrine-SDF and KAF156 alone and co-dosed (Example 6)
- Format: in vivo
- Experimental conditions: dog, in vivo, po, 100 mg, Phase 5 (Mono)
Quantity measured: Cmax (ng/mL)
Return type: number; implicit unit ng/mL.

What value of Cmax has been reported for the following compound? CC1(C)c2nc(-c3ccc(F)cc3)c(Nc3ccc(F)cc3)n2CCN1C(=O)CN
451

###

- Assay name: Dog study of lumefantrine-SDF and KAF156 alone and co-dosed (Example 6)
- Type: in vivo
- Experimental conditions: dog, in vivo, po, 100 mg, Phase 5 (Mono), dog; read-out: T½, Mean (converted)
Quantity measured: half-life (h)
Return type: number; implicit unit h.

What value of half-life has been reported for the following compound? CC1(C)c2nc(-c3ccc(F)cc3)c(Nc3ccc(F)cc3)n2CCN1C(=O)CN
33.2
